# SUBJECT_OF_TEST: Ab-15
# Sequence (heavy, as listed by the source, chain 1 of 2): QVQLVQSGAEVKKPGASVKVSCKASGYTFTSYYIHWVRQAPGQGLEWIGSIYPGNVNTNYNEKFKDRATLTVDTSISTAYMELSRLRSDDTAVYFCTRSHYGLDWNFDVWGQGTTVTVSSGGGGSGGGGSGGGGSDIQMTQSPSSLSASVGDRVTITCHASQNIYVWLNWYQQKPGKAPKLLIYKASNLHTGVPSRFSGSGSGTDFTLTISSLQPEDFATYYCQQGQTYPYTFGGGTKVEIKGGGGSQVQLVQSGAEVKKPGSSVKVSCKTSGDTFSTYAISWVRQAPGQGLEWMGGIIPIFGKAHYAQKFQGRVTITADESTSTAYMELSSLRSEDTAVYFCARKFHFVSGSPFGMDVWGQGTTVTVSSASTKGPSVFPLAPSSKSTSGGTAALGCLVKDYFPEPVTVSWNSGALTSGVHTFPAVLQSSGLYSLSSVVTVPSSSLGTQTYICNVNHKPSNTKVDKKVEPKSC
# Sequence (light, as listed by the source, chain 2 of 2): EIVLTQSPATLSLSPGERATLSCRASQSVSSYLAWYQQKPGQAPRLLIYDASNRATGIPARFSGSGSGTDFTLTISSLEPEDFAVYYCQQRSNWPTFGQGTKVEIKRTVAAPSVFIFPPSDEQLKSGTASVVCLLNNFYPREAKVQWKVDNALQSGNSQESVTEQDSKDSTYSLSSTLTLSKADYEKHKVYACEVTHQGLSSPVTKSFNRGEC
# METHOD_NOTES: BLI (Octet): sensor loaded with 200 nM biotinylated peptide, 100 nM Ab-15
Where no end group is shown, it is not given here.
READOUT_TYPE: Octet signal (200 nM peptide)
# print the numeric value only

Suppose we examine the binder LDWCPRHLWALCFN (cysteine pairing not given here; also: biotinylated, site not given here, CD28 peptide mask) [Peptide-70] ; what Octet signal (200 nM peptide) value has been reported?
0.697

Suppose we examine the binder VPWCQIISGLECLT (cysteine pairing not given here; also: biotinylated, site not given here, CD28 peptide mask) [Peptide-73] ; what Octet signal (200 nM peptide) value has been reported?
0.166

Suppose we examine the binder IDWCPRYLWDECYN (cysteine pairing not given here; also: biotinylated, site not given here, CD28 peptide mask) [Peptide-71] ; what Octet signal (200 nM peptide) value has been reported?
1.52

Suppose we examine the binder IYWCPIDRWNDCYN (cysteine pairing not given here; also: biotinylated, site not given here, CD28 peptide mask) [Peptide-74] ; what Octet signal (200 nM peptide) value has been reported?
0.705

Suppose we examine the binder MDWCPRDLWVHCFA (cysteine pairing not given here; also: biotinylated, site not given here, CD28 peptide mask) [Peptide-41] ; what Octet signal (200 nM peptide) value has been reported?
1.8

Suppose we examine the binder IDWCPLHLWHECYH (cysteine pairing not given here; also: biotinylated, site not given here, CD28 peptide mask) [Peptide-72] ; what Octet signal (200 nM peptide) value has been reported?
0.838

Data credit: patent US20260242478A1
